test: BSK_BT_Bcell_Proliferation: Viability Assessment in the BioMAP Diversity Plus: BT Assay for B cell Proliferation (AID 2284227); details: primary human B cells with PBMC
The source made the active and inactive calls. The calls were made as follows: active = hit-call score of the fitted dose curve at least 0.9, where 1 is the maximum; inactive = score below 0.9.
measured.quantity: AC50

Solved cases (4 shown):
CCOC(=O)C(SP(=S)(OC)OC)c1ccccc1 (stereo not drawn)
inactive
Cc1ccc2nc3sc(=O)sc3nc2c1
5 µM (active)
O=[N+]([O-])c1cccc2ccccc12
inactive
O=S(=O)(c1ccc(Cl)cc1)c1cc(Cl)c(Cl)cc1Cl
30.1 µM (active)

Ask: I would be grateful if you could share the reported AC50 for Nc1c(Oc2ccccc2)cc(O)c2c1C(=O)c1ccccc1C2=O .
Reply: inactive

Ask: I would be grateful if you could share the reported AC50 for O=c1oc2ccccc2c(O)c1C(CC(O)c1ccc(-c2ccc(Br)cc2)cc1)c1ccccc1 (stereo not drawn) .
Reply: inactive

Ask: I would be grateful if you could share the reported AC50 for [Cl][Sn]([c]1ccccc1)([c]1ccccc1)[c]1ccccc1 .
Reply: 0.423 µM (active)

Ask: I would be grateful if you could share the reported AC50 for Cc1cccc(OP(=O)(Oc2cccc(C)c2)Oc2cccc(C)c2)c1 .
Reply: inactive
